Recorded pIC50 values for a group of compounds are listed next.
molecular target: Mitogen-activated protein kinase 14 (Homo sapiens); assay: Binding affinity to P38alpha MAPK (unknown origin) using Smad3 as substrate incubated for 1 hr in presence of ATP by ELISA based competitive binding potency assay
Sequence (Q16539 whole entry): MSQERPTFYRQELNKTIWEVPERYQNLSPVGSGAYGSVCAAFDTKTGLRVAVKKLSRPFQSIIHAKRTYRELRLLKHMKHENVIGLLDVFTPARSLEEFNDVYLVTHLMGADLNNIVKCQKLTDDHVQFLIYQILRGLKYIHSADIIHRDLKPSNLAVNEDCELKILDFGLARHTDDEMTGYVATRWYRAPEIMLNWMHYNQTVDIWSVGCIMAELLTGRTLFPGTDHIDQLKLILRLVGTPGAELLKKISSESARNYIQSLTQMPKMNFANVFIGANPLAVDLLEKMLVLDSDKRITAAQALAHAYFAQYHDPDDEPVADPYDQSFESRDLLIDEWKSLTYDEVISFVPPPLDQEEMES
pIC50: −log10 of the molar value. Peptide text beside a SMILES is read from it.

>  <Compound>
CC[C@H](C)[C@H](NC(=O)[C@H](CCCCN)NC(=O)[C@H](CC(C)C)NC(=O)CNC(=O)[C@@H]1CCCN1C(=O)[C@H](CC(N)=O)NC(=O)[C@H](CCCNC(=N)N)NC(=O)[C@H](CCCCN)NC(=O)[C@H](CCCCN)NC(=O)CNC(=O)[C@H](CCCCN)NC(=O)[C@@H](N)CO)C(=O)N1CCC[C@H]1C(=O)O (H-SKGKKRNPGLKIP-OH)

>  <Value Qualifier>
=

>  <pIC50>
5.59

$$$$
>  <Compound>
CC[C@H](C)[C@H](N)C(=O)N[C@@H](CCCCN)C(=O)N[C@H](C(=O)N[C@@H](CCCCN)C(=O)N[C@@H](CCCCN)C(=O)N[C@H](C(=O)N[C@@H](CCC(=O)O)C(=O)N[C@@H](CC(=O)O)C(=O)N[C@@H](C)C(=O)N[C@@H](CO)C(=O)N[C@@H](CC(N)=O)C(=O)N1CCC[C@H]1C(=O)N[C@@H](CC(C)C)C(=O)O)[C@@H](C)CC)[C@@H](C)CC (H-IKIKKIEDASNPL-OH)

>  <Value Qualifier>
<

>  <pIC50>
6.00

$$$$
>  <Compound>
CC(C)C[C@H](NC(=O)[C@@H](NC(=O)[C@@H]1CCCN1C(=O)[C@@H]1CCCN1C(=O)[C@@H](N)CC(C)C)C(C)C)C(=O)N[C@H](C(=O)N1CCC[C@H]1C(=O)N[C@@H](CCCNC(=N)N)C(=O)N[C@@H](Cc1cnc[nH]1)C(=O)N[C@H](C(=O)N[C@@H](CCC(=O)O)C(=O)O)[C@@H](C)O)C(C)C (H-LPPVLVPRHTE-OH)

>  <Value Qualifier>
<

>  <pIC50>
4.00

$$$$
>  <Compound>
CC(C)C[C@H](NC(=O)[C@H](C)NC(=O)[C@H](CCCNC(=N)N)NC(=O)[C@H](C)NC(=O)[C@H](CCCCN)NC(=O)[C@H](CCCNC(=N)N)NC(=O)[C@H](CCCNC(=N)N)NC(=O)[C@H](CCCNC(=N)N)NC(=O)[C@H](CCCCN)NC(=O)[C@H](CC(C)C)NC(=O)[C@H](CC(C)C)NC(=O)[C@H](CC(C)C)NC(=O)[C@@H]1CCCN1C(=O)[C@H](CC(N)=O)NC(=O)[C@@H](N)CO)C(=O)O (H-SNPLLLKRRRKARAL-OH)

>  <Value Qualifier>
=

>  <pIC50>
6.54

$$$$
